Measured values drawn from patent US20220177589A1 for this set.

target: chimeric BTLA of humanised-BTLA mice (human extracellular region, murine transmembrane and signaling … (human; mouse, UniProt Q7TSA3 184-306, limits assumed); experiment: cell-based or functional assay
Sequence (Q7TSA3 other isoform, or with tags, fused parts or gaps mutant limits assumed): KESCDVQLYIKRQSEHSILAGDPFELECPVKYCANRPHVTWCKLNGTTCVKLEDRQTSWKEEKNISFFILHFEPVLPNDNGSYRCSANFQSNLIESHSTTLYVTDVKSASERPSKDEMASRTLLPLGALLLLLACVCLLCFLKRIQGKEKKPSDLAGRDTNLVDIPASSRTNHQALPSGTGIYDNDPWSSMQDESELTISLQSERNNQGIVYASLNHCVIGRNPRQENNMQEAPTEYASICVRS
# AntiCD3/CD28 (CD69+ CD4 T cells) repeat 2, % inhibition values compiled below
Kindly answer with a numeric value in %, unit omitted.

1) 24H7 (antibody, IgG1, V domains shown) VH: QVQLQQSGAELVRPGASVTLSCKASGYTFTDYEIHWVKQTLVHGLEWIGPIDPDTGNTAYNQNLKGKAILTADKSSSTAYMELRSLTSEDSAVYYCTRGGYDSDWGFAYWGQGTLVTVSA VL: DIVMTQATPSVPVTPGESVSISCRSSKSLLHSNGNTFLFWFLQRPGQSPQLLIYRMSDLASGVPDRFSGSGSGTAFTLRISRVEAEDVGIYYCMQHLEYPFTFGSGTKLEIK : 44
2) 15B6 (antibody, IgG1, V domains shown) VH: QVQLQQPGAELVKPGASVKLSCKASGYTFTSYWMHWVKQRPGQGLEWIGMIHPNSGSTNYNEKFKSKATLTVDKSSSTAYMQLSSLTSEDSAVYYCARKRGGLGDYWGQGTSVTVSS VL: DIVLTQSPASLAVSLGQRATISCRASKSVSTSGYSYMHWYQQKPGQPPKLLIYLASNLESGVPARFSGSGSGTDFTLNIHPVEEEDAATYYCQHSRELPYTFGGGTKLEIK : 20

With those in mind, consider the next binder.
Data request, read-out AntiCD3/CD28 (CD69+ CD4 T cells) repeat 2, % inhibition, for 11.5.1 (antibody, IgG1, V domains shown) VH: EVQLQESGPSLVKPSQTLSLTCSVTGDSITSAYWNWIRKFPGNKLEYMGYISYSGSTYFNPSLKSRISITRNTSKNQYYLQLNSVTTEDTATYYCARSHYYGYYFDYWGHGTTLTVSS VL: DIVLTQSPASLAVSLGQRATISCRASETIDSYGDSLMHWYQQKAGQPPKLLIYRASNLESGIPARFSGSGSRTDFTLTINPVEADDVATYYCQQTDEDPYTFGGGTKLEIK 47
